Provenance of the data: ChEMBL document CHEMBL6153052

assay: Metabolic stability in rat plasma assessed as parent compound remaining measured after 48 hrs by HPLC analysis; type: ADME, cell-free; conditions: read-out: Stability

# LINE NOTATION, remaining at 48 h
records = [
    ("O=C(O)C1=C(C[Se]c2ccccc2C(=O)Nc2ccccc2)CS[C@@H]2[C@H](NCc3cc(Cl)cc(Cl)c3)C(=O)N12", "> 80%"),
]

====

Overview of recorded pIC50 for various compounds
target: Metallo-beta-lactamase type 2 (Bacteria); test: Inhibition of NDM-1 (unknown origin) using nitrocefin as substrate assessed as residual activity preincubated for 15 mins followed by substrate addition by absorbance based assay
Sequence (C7C422 whole entry): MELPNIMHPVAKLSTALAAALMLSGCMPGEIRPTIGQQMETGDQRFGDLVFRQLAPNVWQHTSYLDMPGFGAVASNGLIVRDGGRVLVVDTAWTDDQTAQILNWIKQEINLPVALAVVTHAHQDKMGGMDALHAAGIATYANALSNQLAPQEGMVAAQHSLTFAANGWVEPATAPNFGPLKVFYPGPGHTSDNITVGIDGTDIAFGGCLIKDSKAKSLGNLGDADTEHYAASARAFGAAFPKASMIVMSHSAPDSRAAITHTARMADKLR
pIC50: −log10 of the molar value.

# COMPOUND, SYSTEM UNDER TEST, pIC50
records = [
    ("O=C(O)C1=C(C[Se]c2ccccc2C(=O)Nc2ccccc2)CS[C@@H]2[C@H](NCc3cc(Cl)cc(Cl)c3)C(=O)N12", "Metallo-beta-lactamase type 2 (Bacteria)", 5.15),
    ("O=C(O)C1=C(C[Se]c2ccccc2C(=O)Nc2ccccc2)CS[C@@H]2[C@H](NC(=O)c3ccccc3)C(=O)N12", "Metallo-beta-lactamase type 2 (Bacteria)", 4.21),
    ("CS(=O)(=O)N[C@@H]1C(=O)N2C(C(=O)O)=C(C[Se]c3ccccc3C(=O)Nc3ccccc3)CS[C@H]12", "Metallo-beta-lactamase type 2 (Bacteria)", 4.16),
    ("O=C(O)C1=C(C[Se]c2ccccc2C(=O)Nc2ccccc2)CS[C@@H]2[C@H](NCc3cccs3)C(=O)N12", "Metallo-beta-lactamase type 2 (Bacteria)", 4.28),
    ("O=C(O)C1=C(C[Se]c2ccccc2C(=O)Nc2ccccc2)CS[C@@H]2[C@H](NCc3cc(F)cc(Cl)c3)C(=O)N12", "Metallo-beta-lactamase type 2 (Bacteria)", 4.11),
    ("O=C(O)C1=C(C[Se]c2ccccc2C(=O)Nc2ccccc2)CS[C@@H]2[C@H](NCc3ccccc3)C(=O)N12", "Metallo-beta-lactamase type 2 (Bacteria)", 4.42),
    ("Cc1cc(Cl)cc(CN[C@@H]2C(=O)N3C(C(=O)O)=C(C[Se]c4ccccc4C(=O)Nc4ccccc4)CS[C@H]23)c1", "Metallo-beta-lactamase type 2 (Bacteria)", 4.14),
    ("O=C(O)C1=C(C[Se]c2ccccc2C(=O)Nc2ccccc2)CS[C@@H]2[C@H](NS(=O)(=O)C3CC3)C(=O)N12", "Metallo-beta-lactamase type 2 (Bacteria)", 3.94),
    ("O=c1c2ccccc2[se]n1-c1ccccc1 [EBSELEN]", "Metallo-beta-lactamase type 2 (Bacteria)", 4.80),
    ("O=C(O)C1=C(C[Se]c2ccccc2C(=O)Nc2ccccc2)CS[C@@H]2[C@H](NC(=O)C3CC3)C(=O)N12", "Metallo-beta-lactamase type 2 (Bacteria)", 3.82),
    ("O=C(Cc1ccccc1)N[C@@H]1C(=O)N2C(C(=O)O)=C(C[Se]c3ccccc3C(=O)Nc3ccccc3)CS[C@H]12", "Metallo-beta-lactamase type 2 (Bacteria)", 4.04),
]
